Target: T1, human MuSK (human, UniProt O15146 24-495)
T1 construct: Recombinant protein coated on ELISA plates (R&D Systems cat. 10189-MK) or on the Biacore chip; also called human muscle-specific tyrosine protein kinase; full length human MuSK
T1 sequence: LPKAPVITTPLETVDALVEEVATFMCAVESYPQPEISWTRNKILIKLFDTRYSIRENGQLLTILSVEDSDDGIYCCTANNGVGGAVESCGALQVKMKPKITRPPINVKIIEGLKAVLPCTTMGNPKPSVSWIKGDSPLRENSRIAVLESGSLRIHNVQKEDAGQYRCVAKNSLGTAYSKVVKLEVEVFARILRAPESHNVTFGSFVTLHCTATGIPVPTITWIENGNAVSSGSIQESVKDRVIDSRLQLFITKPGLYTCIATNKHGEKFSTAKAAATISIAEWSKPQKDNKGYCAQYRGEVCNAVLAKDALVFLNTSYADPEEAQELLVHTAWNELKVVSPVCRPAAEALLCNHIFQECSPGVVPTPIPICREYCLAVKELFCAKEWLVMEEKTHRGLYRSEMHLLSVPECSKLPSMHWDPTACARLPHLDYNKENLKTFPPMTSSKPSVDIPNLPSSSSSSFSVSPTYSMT
Assay: Biacore T200, MuSK on chip (200RU), 22.2 nM Fab, dissociation pH 7.4
measurement.name: koff (s⁻¹)
Please respond with the number in s⁻¹ and leave the unit unwritten.

X17 Fab (Fab, V domains shown, Fab format) VH: EVQLVESGGGLVQPGGSLRLSCAASGFTISYSSIHWVRQAPGKGLEWVASIYSSSGSTYYADSVKGRFTISADTSKNTAYLQMNSLRAEDTAVYYCARGDHGYYVFGYLGMDYWGQGTLVTVSS VL: DIQMTQSPSSLSASVGDRVTITCRASQSVSSAVAWYQQKPGKAPKLLIYSASSLYSGVPSRFSGSRSGTDFTLTISSLQPEDFATYYCQQSYKPGALITFGQGTKVEIK = 0.00088
3B2g2m1 Fab (Fab, V domains shown, Fab format) VH: EVQLLESGGGLVQPGGSLRLSCAASGFTFSDYGMSWVRQAPGKGLEWVSAIPWSGGSTYYKESVKGRFTISRDNSKNTLYLQMNSLRAEDTAVYYCAKRSGRIAFGALDAWGQGTLVTVSS VL: QTVVTQEPSFSVSPGGTVTLTCGLSSGSVTSSNYPDWYQQTPGQAPRTLIYSTDSRHSGVPDRFSGSILGNKAALTITGAQADDESDYYCGLYSYSGSKNYVFGGGTKLTVL = 0.00472
X2 Fab (Fab, V domains shown, Fab format) VH: EVQLVESGGGLVQPGGSLRLSCAASGFTVSSSSIHWVRQAPGKGLEWVASISSSYGSTSYADSVKGRFTISADTSKNTAYLQMNSLRAEDTAVYYCARSEGDRYVSGYMGMDYWGQGTLVTVSS VL: DIQMTQSPSSLSASVGDRVTITCRASQSVSSAVAWYQQKPGKAPKLLIYSASSLYSGVPSRFSGSRSGTDFTLTISSLQPEDFATYYCQQSGVWLITFGQGTKVEIK = 0.00057

Lookup: Query: koff; subject: X9 Fab (Fab, V domains shown, Fab format) VH: EVQLVESGGGLVQPGGSLRLSCAASGFTFSSSSIHWVRQAPGKGLEWVASIYSSSGSTYYADSVKGRFTISADTSKNTAYLQMNSLRAEDTAVYYCARSGGEFYITSYYGMDYWGQGTLVTVSS VL: DIQMTQSPSSLSASVGDRVTITCRASQSVSSAVAWYQQKPGKAPKLLIYSASSLYSGVPSRFSGSRSGTDFTLTISSLQPEDFATYYCQQSSSSLITFGQGTKVEIK
Found: 0.00059

Lookup: Query: koff; subject: 3B2 Fab (Fab, V domains shown, Fab format; also called Fab 3B2) VH: ELQLVESGGGLVQPGGSLRLSCAASGFTFDDYGMSWVRQAPGKGLEWVSAIPWNGGSTYYKESVKGRFTISRDNAKKTLYLQMNSLKSEDTAVYYCAKRSGRIAFGALDAWGQGTLVTVSS VL: QAVVTQEPSLSVSPGGTVTLTCGLSSGSVTSSNYPDWYQQTPGQAPRGLIYSTDSRHSGVPSRFSGSISGNKAALTITGAQSEDEADYYCGLYMYSGSKNYVFGGGTKLTVL
Found: 0.00388

Lookup: Query: koff; subject: X3 Fab (Fab, V domains shown, Fab format) VH: EVQLVESGGGLVQPGGSLRLSCAASGFTISSSSIHWVRQAPGKGLEWVASISSSSGYTYYADSVKGRFTISADTSKNTAYLQMNSLRAEDTAVYYCARSWYEMWMSGYFGFDYWGQGTLVTVSS VL: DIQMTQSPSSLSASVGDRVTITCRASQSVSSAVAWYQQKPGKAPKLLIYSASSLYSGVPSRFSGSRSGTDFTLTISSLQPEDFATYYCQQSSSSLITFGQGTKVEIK
Found: 0.00063
